system_name: T1, HLA-A2.1 on T2 cells (human)
T1 construct: Peptide-receptive HLA-A2.1 on T2 cells; also called HLA-A2.1 MHC class I molecules
protocol_summary: peptide binding to HLA-A2.1+ T2 cells, complex stability; Brefeldin A 6 hr (T2 alone 157)
recorded_endpoint: binding score (HLA-A2.1 on T2 cells)

Before answering, review these 10 worked examples.
Please report the recorded binding score (HLA-A2.1 on T2 cells) for YIISGISPV (Modified CD33 peptide) [YIISGISPV (SEQ ID NO: 6)] .
680

Same for YIISGDLPV (Modified CD33 peptide) [YIISGDLPV (SEQ ID NO: 13)]
203

Same for YIILGDSPV (Modified CD33 peptide) [YIILGDSPV (SEQ ID NO: 12)]
173

Same for ALISGDSPV (Modified CD33 peptide) [ALISGDSPV (SEQ ID NO: 16)]
609

Same for YLISGDSPV (Modified CD33 peptide) [YLISGDSPV (SEQ ID NO: 7)]
594

Same for TIQLNVTYV (Native CD33 nonamer, extracellular domain; also called CD33226-234) [CD33 peptide TIQLNVTYV (residues 226-234, SEQ ID NO: 9)]
159

Same for YIGSGDSPV (Modified CD33 peptide) [YIGSGDSPV (SEQ ID NO: 10)]
151

Same for YIISGDSPV (Modified CD33 peptide) [YIISGDSPV (SEQ ID NO: 3)]
216

Same for YIISGDSPL (Modified CD33 peptide) [YIISGDSPL (SEQ ID NO: 15)]
168

Same for YIISGDSWV (Modified CD33 peptide) [YIISGDSWV (SEQ ID NO: 14)]
173

Now consider a different binder.
Please report the recorded binding score (HLA-A2.1 on T2 cells) for YIIIGDSPV (Modified CD33 peptide) [YIIIGDSPV (SEQ ID NO: 11)] .
172
